Data origin, for the record: ChEMBL document CHEMBL1142838

tested system: Histone deacetylase
protocol notes: Effective concentration for inhibition of histone deacetylase
Assay type: protein assay, Homo sapiens
# thresholds on EC50 define classes: bottom bin = under 400 nM, middle bin = from 400 nM up to 2000 nM, top bin = 2000 nM and over

-- ask Just checking, what class would you give `O=C(/C=C/c1ccc2c(c1)C(=O)N(CC(c1ccccc1)c1ccccc1)C2=O)NO` here?
-- reply top bin

-- ask Just checking, what class would you give `Cc1ccc(CN2C(=O)c3ccc(/C=C/C(=O)NO)cc3C2=O)cc1` here?
-- reply middle bin

-- ask Just checking, what class would you give `O=C(/C=C/c1ccc2c(c1)C(=O)N(CCc1ccccc1)C2=O)NO` here?
-- reply bottom bin

-- ask Just checking, what class would you give `O=C(NO)c1ccc2c(c1)C(=O)N(c1ccccc1)C2=O` here?
-- reply top bin

-- ask Just checking, what class would you give `O=C(NO)c1ccc2c(c1)C(=O)N(CCc1ccccc1)C2=O` here?
-- reply top bin

-- ask Just checking, what class would you give `O=C(/C=C/c1ccc2c(c1)C(=O)N(C(c1ccccc1)c1ccccc1)C2=O)NO` here?
-- reply top bin

-- ask Just checking, what class would you give `O=C(/C=C/c1ccc2c(c1)C(=O)N([C@H](COC(=O)c1ccccc1)c1ccccc1)C2=O)NO` here?
-- reply middle bin

-- ask Just checking, what class would you give `O=C(/C=C/c1ccc2c(c1)C(=O)N(Cc1ccccc1)C2=O)NO` here?
-- reply bottom bin

-- ask Just checking, what class would you give `COc1ccc(CN2C(=O)c3ccc(/C=C/C(=O)NO)cc3C2=O)cc1` here?
-- reply bottom bin

---

tested system: Histone deacetylase 4 (Homo sapiens)
Sequence (P56524 whole entry): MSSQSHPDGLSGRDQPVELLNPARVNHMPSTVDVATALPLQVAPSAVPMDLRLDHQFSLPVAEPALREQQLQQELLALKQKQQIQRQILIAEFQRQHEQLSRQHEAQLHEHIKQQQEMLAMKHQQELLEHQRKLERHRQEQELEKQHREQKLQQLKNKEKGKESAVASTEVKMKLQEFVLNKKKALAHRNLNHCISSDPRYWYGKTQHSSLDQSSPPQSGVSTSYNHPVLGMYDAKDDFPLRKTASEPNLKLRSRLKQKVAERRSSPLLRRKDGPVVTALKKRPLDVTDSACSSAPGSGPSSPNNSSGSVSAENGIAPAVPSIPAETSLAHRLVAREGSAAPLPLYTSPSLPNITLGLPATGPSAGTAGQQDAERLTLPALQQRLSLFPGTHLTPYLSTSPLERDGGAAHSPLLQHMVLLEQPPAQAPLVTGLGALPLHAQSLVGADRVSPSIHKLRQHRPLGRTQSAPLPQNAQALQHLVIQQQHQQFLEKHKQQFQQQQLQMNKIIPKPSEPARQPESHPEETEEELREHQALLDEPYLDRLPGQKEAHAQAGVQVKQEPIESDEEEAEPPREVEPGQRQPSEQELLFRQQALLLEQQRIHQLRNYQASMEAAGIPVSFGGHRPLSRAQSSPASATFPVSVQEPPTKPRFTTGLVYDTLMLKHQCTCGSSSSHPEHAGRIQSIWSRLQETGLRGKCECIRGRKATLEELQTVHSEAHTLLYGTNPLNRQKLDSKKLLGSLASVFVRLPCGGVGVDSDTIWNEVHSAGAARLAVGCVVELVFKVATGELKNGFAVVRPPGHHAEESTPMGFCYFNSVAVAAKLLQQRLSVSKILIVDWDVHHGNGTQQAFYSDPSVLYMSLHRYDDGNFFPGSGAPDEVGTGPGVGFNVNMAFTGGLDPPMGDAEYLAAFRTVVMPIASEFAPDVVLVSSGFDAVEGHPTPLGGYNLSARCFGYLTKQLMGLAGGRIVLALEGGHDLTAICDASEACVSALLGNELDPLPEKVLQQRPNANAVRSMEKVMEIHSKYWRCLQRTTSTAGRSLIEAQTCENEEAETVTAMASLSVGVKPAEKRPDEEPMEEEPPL
assay metric: pIC50
Entry type: numeric. Quantity: pIC50, the -log10 of concentration in molar units.

-- ask Please report pIC50 with Histone deacetylase 4 (Homo sapiens) for item `O=C(/C=C/c1ccc2c(c1)C(=O)N(Cc1ccccc1)C2=O)NO` .
-- reply 6.45

---

tested system: Histone deacetylase
protocol notes: Effective concentration for inhibition of histone deacetylase
Assay type: protein assay, Homo sapiens
Please provide measured EC50 for the entries that follow.
Kindly answer with a numeric value in nM, unit omitted.

-- ask Please report EC50 with Histone deacetylase for item `C[C@H](c1ccccc1)N1C(=O)c2ccc(/C=C/C(=O)NO)cc2C1=O` .
-- reply 291

-- ask Please report EC50 with Histone deacetylase for item `O=C(/C=C/c1ccc2c(c1)C(=O)N(c1ccccc1)C2=O)NO` .
-- reply 2080

-- ask Please report EC50 with Histone deacetylase for item `O=C(NO)c1ccc2c(c1)C(=O)N(Cc1ccccc1)C2=O` .
-- reply 4160

-- ask Please report EC50 with Histone deacetylase for item `C[C@@H](c1ccccc1)N1C(=O)c2ccc(/C=C/C(=O)NO)cc2C1=O` .
-- reply 250

-- ask Please report EC50 with Histone deacetylase for item `O=C(/C=C/c1ccc2c(c1)C(=O)N([C@@H](COC(=O)c1ccccc1)c1ccccc1)C2=O)NO` .
-- reply 3790
